- Target Under Test: T1, recombinant human IL-6 (human, UniProt P05231 30-212)
- T1 construct: Bought protein
- T1 sequence (P05231 30-212 limits assumed): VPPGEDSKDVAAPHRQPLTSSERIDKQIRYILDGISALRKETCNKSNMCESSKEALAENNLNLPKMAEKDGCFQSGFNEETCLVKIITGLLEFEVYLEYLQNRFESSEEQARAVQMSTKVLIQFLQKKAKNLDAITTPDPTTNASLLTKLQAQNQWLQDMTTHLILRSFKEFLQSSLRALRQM
- Method: SPR Biacore, purified Ab on Protein A chip, IL-6 analyte, 37 C
- Method: Antibodies were captured on a Protein A chip (GE) by injecting 1:20 dilution of cell supernatant at 10 μL/min for 60 seconds. […] The sensor chip was regenerated by a 60 seconds injection of 10 mM Glycine pH 1.7 at flow rate of 50 μL/min. […] For this setup, 1 μg/mL of purified antibody was injected over a Protein A chip at 10 μL/min for 25-28 seconds. Data analysis for supernatant and purified samples were performed using BIAevaluation software (GE). […]
Give koff for every item shown.
Please reply with the bare figure in s⁻¹ and do not write the unit itself.

Query: Can you share its koff? I mean this binder: anti-IL-6 antibody, light chain D49E (heavy chain WT) (antibody, V domains shown, See note of m2; also called WT / D49E) VH: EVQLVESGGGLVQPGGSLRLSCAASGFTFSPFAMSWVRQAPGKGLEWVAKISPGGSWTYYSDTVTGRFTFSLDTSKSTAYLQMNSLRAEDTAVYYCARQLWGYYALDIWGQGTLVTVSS VL: DIQLTQSPSSLSASVGDRVTITCSASISVSYMYWYQQKPGKAPKLLIYEMSNLASGVPSRFSGSGSGTDFTLTISSLQPEDFATYYCMQWSGYPYTFGQGTKVEIK
Result: 0.000417

Query: Can you share its koff? I mean this binder: anti-IL-6 antibody, light chain M88A (heavy chain WT) (antibody, V domains shown, See note of m2; also called WT / M88A) VH: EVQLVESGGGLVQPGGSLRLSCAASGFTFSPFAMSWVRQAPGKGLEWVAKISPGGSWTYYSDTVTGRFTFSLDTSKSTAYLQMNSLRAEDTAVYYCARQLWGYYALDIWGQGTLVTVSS VL: DIQLTQSPSSLSASVGDRVTITCSASISVSYMYWYQQKPGKAPKLLIYDMSNLASGVPSRFSGSGSGTDFTLTISSLQPEDFATYYCAQWSGYPYTFGQGTKVEIK
Result: 0.00132
